Target Entity: NS3 genotype 3a protease (UniProt Q81258)
Construct: Purified NS3 protease domain (amino acids 1-181) of the genotype 1b and 3a virus were generated as above; fused on or other part: N-terminal hexahistidine tag and rTEV protease cleavage site (vector p28-N6H-Tev-NS3(181)3)
Method Notes: Ki determination, NS3 protease genotype 3a (fluorogenic depsipeptide substrate)
Type: biochemical, hepatitis C virus
Protocol Conditions: 200 pM enzyme, 20 μM NS4A peptide, 2 μM substrate, read-out: Ki 3A
# key: entry, value: Ki
Give the value, in units of nM, as a plain number.

Reference set (2 entries):
[[record]]
compound = "COc1ccc2nc3c(nc2c1)O[C@H]1CN(C(=O)[C@H](C(C)(C)C)NC(=O)O[C@@]2(C)C[C@@H]2CCCCC3)[C@H](C(=O)N[C@]2(C(=O)NS(=O)(=O)C3(C)CC3)C[C@H]2C(F)F)[C@@H]1C [Example 45]"
reported = 0.48

[[record]]
compound = "CC[C@@H]1[C@@H]2CN(C(=O)[C@H](C(C)(C)C)NC(=O)O[C@]3(C)CCC[C@H]3CCCCCc3nc4ccc(OC)cc4nc3O2)[C@@H]1C(=O)N[C@]1(C(=O)NS(=O)(=O)C2CC2)C[C@H]1CC [Example 51]"
reported = 0.84


**Q:** Name the recorded Ki for CC[C@@H]1[C@@H]2CN(C(=O)[C@H](C(C)(C)C)NC(=O)O[C@@H]3[C@H]4CC[C@H](C4)[C@H]3CCCCCc3nc4ccc(OC)cc4nc3O2)[C@@H]1C(=O)N[C@]1(C(=O)NS(=O)(=O)C2(C)CC2)C[C@H]1C(F)F [Example 37] .
**A:** 0.19

**Q:** What would you report for C[C@@H]1[C@@H]2CN(C(=O)[C@H](C(C)(C)C)NC(=O)O[C@@H]3C[C@@H]4C[C@@H]4[C@H]3CCCCC(F)(F)c3nc4ccccc4nc3O2)[C@@H]1C(=O)N[C@]1(C(=O)NS(=O)(=O)C2(C)CC2)C[C@H]1C(F)F [Example 82] ?
**A:** 0.04

**Q:** What would you report for CC[C@@H]1[C@@H]2CN(C(=O)[C@H](C(C)(C)C)NC(=O)O[C@@H]3C[C@H]3CCCCCc3nc4ccc(OC)cc4nc3O2)[C@@H]1C(=O)N[C@]1(C(=O)NS(=O)(=O)C2(C)CC2)C[C@H]1CC [Example 4] ?
**A:** 0.56

**Q:** What would you report for CC[C@@H]1[C@@H]2CN(C(=O)[C@H](C(C)(C)C)NC(=O)O[C@]3(C)CCC[C@H]3CCCCCc3nc4ccc(OC)cc4nc3O2)[C@@H]1C(=O)N[C@]1(C(=O)NS(=O)(=O)C2(C)CC2)C[C@H]1CC(F)F [Example 41] ?
**A:** 0.79

**Q:** What would you report for CC[C@@H]1[C@@H]2CN(C(=O)[C@H](C(C)(C)C)NC(=O)O[C@@H]3C[C@H]3CCCCC(F)c3nc4ccc(OC)cc4nc3O2)[C@@H]1C(=O)N[C@]1(C(=O)NS(=O)(=O)C2(C)CC2)C[C@H]1C(F)F (stereo partly drawn) [Example 90] ?
**A:** 0.13

**Q:** What would you report for CC[C@@H]1[C@@H]2CN(C(=O)[C@H](C(C)(C)C)NC(=O)O[C@]3(C)CCC[C@H]3CCCCCc3nc4ccc(OC)cc4nc3O2)[C@@H]1C(=O)N[C@]1(C(=O)NS(=O)(=O)C2(C)CC2)C[C@H]1CC [Example 56] ?
**A:** 1

**Q:** What would you report for CC[C@@H]1[C@@H]2CN(C(=O)[C@H](C(C)(C)C)NC(=O)O[C@@]3(C)C[C@@H]3CCCCCc3nc4ccc(OC)cc4nc3O2)[C@@H]1C(=O)N[C@]1(C(=O)NS(=O)(=O)C2(C)CC2)C[C@H]1C(F)F [Example 8] ?
**A:** 0.42
